Molecular target: c-Met (cytoplasmic domain) (Homo sapiens)
Construct: 10 ng/mL c-Met (cytoplasmic domain, Invitrogen Corporation #PV3143); purchased Invitrogen Corporation PV3143
Sequence (P08581 956-1390 limits assumed): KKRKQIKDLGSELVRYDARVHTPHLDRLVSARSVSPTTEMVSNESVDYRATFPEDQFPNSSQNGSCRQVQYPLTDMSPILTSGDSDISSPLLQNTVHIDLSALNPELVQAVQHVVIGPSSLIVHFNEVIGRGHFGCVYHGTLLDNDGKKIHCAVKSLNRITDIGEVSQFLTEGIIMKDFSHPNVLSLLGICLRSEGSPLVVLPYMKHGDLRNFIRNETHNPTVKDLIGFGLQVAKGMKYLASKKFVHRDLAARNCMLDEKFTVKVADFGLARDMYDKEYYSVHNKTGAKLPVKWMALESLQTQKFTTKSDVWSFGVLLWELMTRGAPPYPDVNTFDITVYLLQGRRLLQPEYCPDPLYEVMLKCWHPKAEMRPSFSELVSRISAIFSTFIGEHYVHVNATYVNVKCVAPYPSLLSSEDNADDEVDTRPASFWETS
Experiment: c-Met Kinase Assay (same methods as for ALK, with modifications)
Format: biochemical
Conditions: 1 μM ATP (Km level); read-out: cMet Activity (c-Met Kinase Inhibition, IC50)
Listed here are molecules together with their documented IC50.

Consider the reported IC50 for these molecules:
* CNC(=O)CN1CCc2cc(Nc3ncc(Cl)c(Nc4ccc(N5CCN(C)CC5)cc4OC)n3)c(OC)cc2CC1 | > 10 µM
* COc1c(Nc2ncc(Cl)c(Nc3ccccc3S(=O)(=O)N3CC[C@@H](O)C3)n2)ccc2c1CCCC(NCCO)C2 (some centres unmarked) | > 10 µM
* COCCN1CCSc2ccc(Nc3ncc(Cl)c(N[C@@H]4CCCC[C@H]4NS(C)(=O)=O)n3)cc2C1 | 1 to 10 µM
* COc1c(Nc2ncc(Cl)c(Nc3ccccc3S(=O)(=O)N(C)C)n2)ccc2c1CCCC(N1CCOCC1)C2 (centres unmarked) | > 10 µM
* CNC(=O)c1ccccc1Nc1nc(Nc2ccc3c(c2)OCCCO3)ncc1Cl | < 0.1 µM

IN: Using c-Met (cytoplasmic domain) (Homo sapiens) as the test system, report measured IC50 of COCCNC1CCc2ccc(Nc3ncc(Cl)c(Nc4ccccc4S(=O)(=O)N4CCC(O)C4)n3)c(OC)c2CC1 (centres unmarked) .
OUT: 1 to 10 µM

IN: Using c-Met (cytoplasmic domain) (Homo sapiens) as the test system, report measured IC50 of COc1ccc(Nc2nc(Nc3ccc4c(c3)CCC(O)CC4)ncc2Cl)c2c1CN(C)C2=O (centres unmarked) .
OUT: 1 to 10 µM

IN: Using c-Met (cytoplasmic domain) (Homo sapiens) as the test system, report measured IC50 of COc1cc2c(cc1Nc1ncc(Cl)c(N[C@H]3[C@@H](C(N)=O)[C@@H]4C=C[C@H]3C4)n1)CCN(CC(C)(F)F)CC2 .
OUT: > 10 µM

IN: Using c-Met (cytoplasmic domain) (Homo sapiens) as the test system, report measured IC50 of COCCN1CCc2cc(Nc3ncc(Cl)c(Nc4ccccc4-c4ncccc4C)n3)c(OC)cc2CC1 .
OUT: > 10 µM

IN: Using c-Met (cytoplasmic domain) (Homo sapiens) as the test system, report measured IC50 of CCN1CC(=O)N(CC)c2cc(Nc3ncc(Cl)c(N[C@@H]4CCCC[C@H]4NS(C)(=O)=O)n3)c(OC)cc2C1 .
OUT: > 10 µM
